Reported values of melting point for individual entries

compound: O=C(c1ccc(Br)cc1)C1C(c2cc3ccccc3o2)C2C3CCCCC3CN2[C@@]12C(=O)Nc1ccccc12 (stereo partly shown)
result: 118 to 120 °C
//
compound: O=C(c1ccc(C(F)(F)F)cc1)C1C(c2cc3ccccc3o2)C2CSCN2[C@@]12C(=O)Nc1ccc(Cl)cc12 (stereo partly shown)
result: 110 to 112 °C
//
compound: O=C(c1ccc(Cl)cc1)C1C(c2cc3ccccc3o2)C2CSCN2[C@@]12C(=O)Nc1ccc(Cl)cc12 (stereo partly shown)
result: 105 to 106 °C
//
compound: O=C(c1ccc(F)cc1)C1C(c2cc3ccccc3o2)C2CSCN2[C@@]12C(=O)Nc1ccc(Cl)cc12 (stereo partly shown)
result: 110 to 112 °C
//
compound: O=C(c1ccc(F)cc1)C1C(c2cc3ccccc3o2)C2C3CCCCC3CN2[C@@]12C(=O)Nc1ccc(Br)cc12 (stereo partly shown)
result: 125 to 127 °C

Noted for O=C(c1ccccc1)C1C(c2cc3ccccc3o2)C2CSCN2[C@@]12C(=O)Nc1ccc(Cl)cc12 (stereo partly shown) : its melting point reads 132 to 133 °C

So for O=C(c1ccccc1)C1C(c2cc3ccccc3o2)C2C3CCCCC3CN2[C@@]12C(=O)Nc1ccc(Cl)cc12 (stereo partly shown) , the logged melting point turned out to be 120 to 122 °C

----------
biological target: α-Glucosidase type 1 from baker’s yeast (Saccharomyces cerevisiae, UniProt P53341); construct: purchased Sigma-Aldrich G5003; test: α-Glucosidase inhibition assay (p-nitrophenyl α-D-glucopyranoside, 405 nm); assay type: biochemical; details: IC50 (α-amylase)/IC50 (α-glucosidase)
Sequence (P53341 whole entry): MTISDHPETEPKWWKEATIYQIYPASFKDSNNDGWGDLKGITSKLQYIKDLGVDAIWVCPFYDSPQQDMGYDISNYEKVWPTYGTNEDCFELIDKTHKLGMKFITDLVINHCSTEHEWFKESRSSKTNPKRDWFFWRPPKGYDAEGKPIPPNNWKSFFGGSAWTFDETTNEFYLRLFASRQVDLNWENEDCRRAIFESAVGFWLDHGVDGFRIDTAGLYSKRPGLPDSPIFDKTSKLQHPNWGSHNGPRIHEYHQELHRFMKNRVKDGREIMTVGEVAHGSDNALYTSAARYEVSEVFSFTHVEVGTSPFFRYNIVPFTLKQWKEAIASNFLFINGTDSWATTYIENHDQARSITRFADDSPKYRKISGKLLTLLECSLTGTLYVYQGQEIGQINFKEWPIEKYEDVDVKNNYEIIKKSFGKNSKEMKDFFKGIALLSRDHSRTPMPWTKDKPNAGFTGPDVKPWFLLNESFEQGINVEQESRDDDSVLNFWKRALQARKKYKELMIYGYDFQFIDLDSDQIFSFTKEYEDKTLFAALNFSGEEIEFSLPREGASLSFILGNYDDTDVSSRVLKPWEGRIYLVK
quantity.measured: α-Glucosidase Selectivity
In your answer, state the number alone without any accompanying words.

compound: O=C(c1ccc(Cl)cc1)C1C(c2cc3ccccc3o2)C2CSCN2[C@@]12C(=O)Nc1ccc(Cl)cc12 (some centres unmarked)
recorded.number: 1.24
//
compound: O=C(c1ccc(F)cc1)C1C(c2cc3ccccc3o2)C2CSCN2[C@@]12C(=O)Nc1ccc(Cl)cc12 (some centres unmarked)
recorded.number: 1.22
//
compound: O=C(c1ccccc1)C1C(c2cc3ccccc3o2)C2CSCN2[C@@]12C(=O)Nc1ccc(Cl)cc12 (some centres unmarked)
recorded.number: 1.49

Record summary for O=C(c1ccc(Br)cc1)C1C(c2cc3ccccc3o2)C2CSCN2[C@@]12C(=O)Nc1ccc(Br)cc12 (some centres unmarked) : reported α-Glucosidase Selectivity = 1.19

α-Glucosidase Selectivity reported for this compound O=C(c1ccc(Br)cc1)C1C(c2cc3ccccc3o2)C2CSCN2[C@@]12C(=O)Nc1ccc(Cl)cc12 (some centres unmarked) : 1.13

----------
Notes on pIC50 obtained with α-amylase from Aspergillus oryzae (Aspergillus oryzae).
// field semantics: pIC50 = negative decimal log of concentration (mol/L)

// worked examples, pIC50 included
molecule: O=C(c1ccc(Br)cc1)C1C(c2cc3ccccc3o2)C2CSCN2[C@@]12C(=O)Nc1ccc(Cl)cc12 (stereo partly drawn)
pIC50: 3.11
--
molecule: O=C(c1ccccc1)C1C(c2cc3ccccc3o2)C2CSCN2[C@@]12C(=O)Nc1ccc(Cl)cc12 (stereo partly drawn)
pIC50: 3.16
--
molecule: O=C(c1ccc(Br)cc1)C1C(c2cc3ccccc3o2)C2CSCN2[C@@]12C(=O)Nc1ccc(Br)cc12 (stereo partly drawn)
pIC50: 3.23
--
molecule: O=C(c1ccc(C(F)(F)F)cc1)C1C(c2cc3ccccc3o2)C2CSCN2[C@@]12C(=O)Nc1ccc(Cl)cc12 (stereo partly drawn)
pIC50: 3.25
--
molecule: O=C(c1ccc(F)cc1)C1C(c2cc3ccccc3o2)C2CSCN2[C@@]12C(=O)Nc1ccc(Cl)cc12 (stereo partly drawn)
pIC50: 3.14

pIC50 value, target or system α-amylase from Aspergillus oryzae (Aspergillus oryzae), for O=C(c1ccc(Cl)cc1)C1C(c2cc3ccccc3o2)C2CSCN2[C@@]12C(=O)Nc1ccc(Cl)cc12 (stereo partly drawn) : 3.31

----------
Recorded below: IC50, system α-Glucosidase type 1 from baker’s yeast (Saccharomyces cerevisiae, UniProt P53341).
Please give a number only; it is taken to be in µM.

Below, each entry is followed by its recorded IC50 result.
compound: O=C(c1ccc(F)cc1)C1C(c2cc3ccccc3o2)C2CSCN2[C@@]12C(=O)Nc1ccc(Cl)cc12 (stereo partly drawn)
system.name: α-Glucosidase type 1 from baker’s yeast (Saccharomyces cerevisiae, UniProt P53341)
IC50, µM: 585
--
compound: O=C(c1ccc(Br)cc1)C1C(c2cc3ccccc3o2)C2CSCN2[C@@]12C(=O)Nc1ccc(Br)cc12 (stereo partly drawn)
system.name: α-Glucosidase type 1 from baker’s yeast (Saccharomyces cerevisiae, UniProt P53341)
IC50, µM: 494
--
compound: O=C(c1ccccc1)C1C(c2cc3ccccc3o2)C2CSCN2[C@@]12C(=O)Nc1ccc(Cl)cc12 (stereo partly drawn)
system.name: α-Glucosidase type 1 from baker’s yeast (Saccharomyces cerevisiae, UniProt P53341)
IC50, µM: 465
--
compound: O=C(c1ccc(Cl)cc1)C1C(c2cc3ccccc3o2)C2CSCN2[C@@]12C(=O)Nc1ccc(Cl)cc12 (stereo partly drawn)
system.name: α-Glucosidase type 1 from baker’s yeast (Saccharomyces cerevisiae, UniProt P53341)
IC50, µM: 392
--
compound: O=C(c1ccc(Br)cc1)C1C(c2cc3ccccc3o2)C2CSCN2[C@@]12C(=O)Nc1ccc(Cl)cc12 (stereo partly drawn)
system.name: α-Glucosidase type 1 from baker’s yeast (Saccharomyces cerevisiae, UniProt P53341)
IC50, µM: 684

// assay α-Glucosidase type 1 from baker’s yeast (Saccharomyces cerevisiae, UniProt P53341), entry O=C(c1ccc(C(F)(F)F)cc1)C1C(c2cc3ccccc3o2)C2CSCN2[C@@]12C(=O)Nc1ccc(Cl)cc12 (stereo partly drawn) , IC50 value = 414

----------
Listed here are molecules together with their documented α-Amylase Selectivity.
target: α-amylase from Aspergillus oryzae (Aspergillus oryzae); construct: purchased Sigma Aldrich; assay: biochemical; details: IC50 (α-glucosidase)/IC50 (α-amylase)

As a guide, the following entries are already answered.
molecule: O=C(c1ccc(Cl)cc1)C1C(c2cc3ccccc3o2)C2CSCN2[C@@]12C(=O)Nc1ccc(Cl)cc12 (stereo partly drawn)
quantity.measured: α-Amylase Selectivity
result: 0.80
--
molecule: O=C(c1ccc(F)cc1)C1C(c2cc3ccccc3o2)C2CSCN2[C@@]12C(=O)Nc1ccc(Cl)cc12 (stereo partly drawn)
quantity.measured: α-Amylase Selectivity
result: 0.81
--
molecule: O=C(c1ccc(C(F)(F)F)cc1)C1C(c2cc3ccccc3o2)C2CSCN2[C@@]12C(=O)Nc1ccc(Cl)cc12 (stereo partly drawn)
quantity.measured: α-Amylase Selectivity
result: 0.74
--
molecule: O=C(c1ccc(Br)cc1)C1C(c2cc3ccccc3o2)C2CSCN2[C@@]12C(=O)Nc1ccc(Br)cc12 (stereo partly drawn)
quantity.measured: α-Amylase Selectivity
result: 0.83
--
molecule: O=C(c1ccccc1)C1C(c2cc3ccccc3o2)C2CSCN2[C@@]12C(=O)Nc1ccc(Cl)cc12 (stereo partly drawn)
quantity.measured: α-Amylase Selectivity
result: 0.67

The measured α-Amylase Selectivity associated with O=C(c1ccc(Br)cc1)C1C(c2cc3ccccc3o2)C2CSCN2[C@@]12C(=O)Nc1ccc(Cl)cc12 (stereo partly drawn) reads 0.87
